assay: yeast display, Sf9 membrane polyspecificity reagent, FACS + sequencing; frameworks hold sequencing errors
assay metric: polyreactivity (PSR sort gate)

Consider the following illustrative entries.
{"macromolecule sequence": "QVQLVESGGGLVQAGGRLRVSCAASGRTFYYYGMGWYRQAPGKESELVATISWSGGSTYYADSVKGRFTISRDNAKNTVYLQMNSLKPEDTEVYYCAADGQFLYDHIEVDYWGQGTQVTVSS", "polyreactivity (PSR sort gate)": "low polyreactivity"}
{"macromolecule sequence": "QVQLVESGGGLVQAGVSLRLSCAASGRTFGYYAMGWYRPAPGKETELVAASTLSGGSTYYADSVKGRFTISRDNAKNTVYLQMNSLKPEYTAVYYCAAKWWHFYPYDYWGQGTQVTVSS", "polyreactivity (PSR sort gate)": "high polyreactivity"}
{"macromolecule sequence": "QVQLVESGGGLVQAGGSLRLSCAASGYIFYNAMGWYRQAPGKERELVASISRRSGSTYYADSVKGRFTISRDNAKNTVYLQMNSLKPEDTAVYYCAADRPPWETYGYDYWGQGTQVTVSS", "polyreactivity (PSR sort gate)": "low polyreactivity"}
{"macromolecule sequence": "QVQLVESGGGLVQAGGSLRLSCAASGSTFRVNAMGWYRQAPGKEREFVATIRGGGVRTYYADSVKGRFTISRDNAKNTVYLQMNSLKPEDTAVYYCAVAGGTPGAYRRFNYWGQGTQVTVSS", "polyreactivity (PSR sort gate)": "high polyreactivity"}

Okay, next one:
May I ask what polyreactivity (PSR sort gate) has been recorded for QVQLVESGGGLVQAGGSLRLSCAASGSTFFTNAMGWYRQAPGKERELVATITWSGGSTYADSVKGRFTISRDNAKNTVYLQMNSLKPEDTAVYYCAAESSSYWGDLGGALWLYDYWGQGTQVTVSS ?
low polyreactivity

====

assay: yeast display, Sf9 membrane polyspecificity reagent, FACS + sequencing; frameworks hold sequencing errors
assay metric: polyreactivity (PSR sort gate)

{"macromolecule sequence": "QVQLQESGDGLVQAGGSLRLSSAASGTIFSDYGMGWYRQAPGKERELLAGISDGCNTNYTDSVKGRFTISRDNAHRVSADDQPETGGYRGVLLRGSERWLLFYVYWGLGTQVTVSS", "assay value": "high polyreactivity"}
{"macromolecule sequence": "QVQLVESGRGLVQAGGSLRLSCAASGSTCEGNAMGWYRQAPGKEELVAAISWSSDSTYNADSVKGRFTISRDNAKNTVYLQMNSLKPEDTAVYYCAAAIPGKYSNDYWGQGTQVTVSS", "assay value": "high polyreactivity"}

====

test: yeast display, Sf9 membrane polyspecificity reagent, FACS + sequencing; frameworks hold sequencing errors
assay metric: polyreactivity (PSR sort gate)

{"macromolecule sequence": "QVQLVESGGGLVQAGGILRLSCAASGRTFQGNAMGWSRQAPGKERELVAVIDSGTSTDYADSVKGRFTISRDNAKNTVYLQMNSLKPEDTAVYYCAADGALGYNLRYDYWGQGTQVTVSS", "polyreactivity (PSR sort gate)": "low polyreactivity"}
{"macromolecule sequence": "QVQLVESGGGLVQAGGSLRLSCAASGSTFKPNAMGSYRQAPGKEREFVASITWSAGSTYYADSVKGRFTISRDNAKNTVYLQMNSLKPEDTAVYYCAARLRWAGISRYGYWGQGTQVTVSS", "polyreactivity (PSR sort gate)": "high polyreactivity"}
{"macromolecule sequence": "QVQLVESGGGLVQAGGSLRLSCAASGFTFAWYAMGWYRQAPGKERELVAAISWSGGRTYYADSVKGRFTISRDNAKNTVYLQMNSLKPEDTAVYYCAALFLYGYVREYDYWGQGTQVTVSS", "polyreactivity (PSR sort gate)": "high polyreactivity"}
{"macromolecule sequence": "QVQLEESGGGLVQAGGSLRLSCAASGSTYGNSAMAGYRQAPGKERELVAAINGGPNTYYADSVKGRFTISRDNAKKTVYLQMNSLKPEDTAVYYCAAEAQAIGFHWGVDGDSWGQGTQVTVSS", "polyreactivity (PSR sort gate)": "low polyreactivity"}

May I ask what polyreactivity (PSR sort gate) has been recorded for QVQLVESGGGLVQAGGSLRLRCAASGRTFLPYAMGWSRQAPGKVRVLVAAIDSSGTSTYYADSVKGRFTISRDNAKNTVYLQMNSLKPEDTAVYYCAKAWPDHWYSRYDYWGQGTQVTVSS ?
low polyreactivity

====

experiment: yeast display, Sf9 membrane polyspecificity reagent, FACS + sequencing; frameworks hold sequencing errors
assay metric: polyreactivity (PSR sort gate)

Consider the following illustrative entries.
{"macromolecule sequence": "QVQLVESGGGLVQAGGSLRLSCAASGRTFYSYAMGWYRQAPGKERELVAGITWSGTSTYYADSVKGRFTISRDNAKNTVYLQMNSLKPEDTAVYYCAAATLYSRYDYWGQGTQVTVSS", "polyreactivity (PSR sort gate)": "low polyreactivity"}
{"macromolecule sequence": "QVQLVESGGGLVQAGGSLRLSWAASGRTFKSNAMGWYRPAPGKERELVAAISWGGGSTYYADSVKGRFTISRDNAKNTVYLQMNSLKPEDTAVYYCARRDIYGSYGFYTGGVDYWGQGTQVTVSS", "polyreactivity (PSR sort gate)": "low polyreactivity"}
{"macromolecule sequence": "QVQLVESGGGLVQAGGSLRLSCAASGFTFRAYAMGWYRQAPGKERELVAAINISGGSTYYADSVKGRFTISRDNAKNTVYLQMNSLKPEDTAVYYCAADWPEDWYTEYGYWGQGTQVTVSS", "polyreactivity (PSR sort gate)": "low polyreactivity"}
{"macromolecule sequence": "QVQLVESGGCLVQAGGSLRLSCAASGRTFVNNAMGWYRQAPGKYRELVAAITRSGGLTYSADSVKGRFTISRDHAKNTVYLQMTMLKPEYTAVYDCATAIVRLRHDDDWGQGTQVTVSS", "polyreactivity (PSR sort gate)": "high polyreactivity"}
{"macromolecule sequence": "QVQLVESGGGLVQAVGSLRLSCAASGIIFDSYAMGWYRQAPGKERELVAAITSRGGRTYYADSVKGRFTISRDNAKNTVYLQMNSLKPEDTAVYYCAADDGWIEPVYGYYEHEYWGQGTQVTVSS", "polyreactivity (PSR sort gate)": "low polyreactivity"}
{"macromolecule sequence": "QVQLVESGGGLVQAGGSLRLSCAASGFTIHNYAMGWYRQAPGKERELVARITRSGGTTYYADSVKGRFTISRDNAKNTVYLQMNSLKPEDTAVYYCAARRYGYTSITWYDYWGQGTQVTVSS", "polyreactivity (PSR sort gate)": "high polyreactivity"}
{"macromolecule sequence": "QVQLVESGGGLVQAGGSLRLSCPASGRTFKWYAMGWYRQAPGKERELVAAISTGGRTHYADSVKGRFTISRDNSKNTVYLQMNSLKPEDTAVYYCNAADDLADPERTENHKRDYWGQGTQVTVSS", "polyreactivity (PSR sort gate)": "high polyreactivity"}
{"macromolecule sequence": "QVQLVESGGGLVQAGGILRLSCAASGFIFAYYAMGWYRQAPGKERELVAAITRRGGSTSYADSVKGRFTISRDNAKNTVYLQMNSLKPEDTAVYYCNAVSKYDYGYWGQGTQVTVSS", "polyreactivity (PSR sort gate)": "high polyreactivity"}
{"macromolecule sequence": "QVQLVESGGGLVQAGGSLRLSCAASGGTFWTNAMGWYRQAPGKERELVARITSGGGTNYADSVKGRFTISRDNAKNTVYVQMNSRKPEDTAVYYCAAETIYYPVAQSYYSFEYWGQGTQVTVSS", "polyreactivity (PSR sort gate)": "low polyreactivity"}
{"macromolecule sequence": "QVQLVESGGGLVQAGGSLRLSCAASGSTFQTYAMGWYRQAPGKERELLAAINWRSGSTYYADSVKGRFTISRDNAKNTVYLQMNSLTPEDTAVSYCAAELDFSPGYYYLYDYWGQGTQVTVSS", "polyreactivity (PSR sort gate)": "low polyreactivity"}

Okay, next one:
May I ask what polyreactivity (PSR sort gate) has been recorded for QVQLVDSGGGLVQAGGSLRLSSAASGRTFDYYAMGWYRQAPGKERELVAAITKDGGSTYYADSVKGRFTISRDNAKNTVFLQMNSLKPEDTAVYYCAADGPPLYYDPIHYDYWGQGTQVTVSS ?
low polyreactivity

====

assay: yeast display, Sf9 membrane polyspecificity reagent, FACS + sequencing; frameworks hold sequencing errors
assay metric: polyreactivity (PSR sort gate)

Consider the following illustrative entries.
{"macromolecule sequence": "QDQLVESGGGLVQAGGSLRLSCAASGIIFKFNVMGWYRQAPGKERELVAAISTGGSTYYADSVKGRFTISRDNAKNTVYLQMNSLKPEDTAVYYCNAVSPLSIWSSRDGWYGYWGQGTQVTVSS", "polyreactivity (PSR sort gate)": "high polyreactivity"}
{"macromolecule sequence": "QVQLGESGGGLVQAGGSLRLSCAASGIIFDTYAMGWYRQAPGKQRELVAVISTRGTSTYYADSVKGRFTISRDNAKNTVYLQMNSLKPEDTEVYYCNAFGRYSYPTFDYWGQGTQVTVSS", "polyreactivity (PSR sort gate)": "high polyreactivity"}
{"macromolecule sequence": "QVQLVESGGGLVQAGGSLRLSCAASGLIFTRNAMGWYRQAPGKERELVASISNSGGSTYYADSVKGRFTISRDNAKNTVYLQMNSLKPEDTAVYYCAAPTHLHGHGNQNEFYYWGQGTQVTVSS", "polyreactivity (PSR sort gate)": "low polyreactivity"}
{"macromolecule sequence": "QVQLVESGGGLVQAGGTLRLSCAASGSIFPYYVMGWYRQAPGKERELVAAISTSDGSTYADSVKGRFTISRDNAKNTVYFQMNSLKPEDTAVYYCAVANVYYEGYDYWGQGTQVTVSS", "polyreactivity (PSR sort gate)": "low polyreactivity"}

May I ask what polyreactivity (PSR sort gate) has been recorded for QVQLVDSGGGLVQAGGSLRLSCAASGSTFPSNAMGWYRQAPGKERELVASIDRGGSTNNADSVKGRFTISRDNAKNTVYLQMNRLKPEDTAVYYCAAKRWPYWDISVYYWGYDYWGQGTQVTVSS ?
low polyreactivity

Where do the numbers come from? From the nanobody polyreactivity screen of Harvey et al. (2022).
